# measured-target: Human eIF4E (aa 28-217) / biotin labeled 4G2 peptide (Homo sapiens (Human), UniProt P06730)
# Sequence (P06730 28-217): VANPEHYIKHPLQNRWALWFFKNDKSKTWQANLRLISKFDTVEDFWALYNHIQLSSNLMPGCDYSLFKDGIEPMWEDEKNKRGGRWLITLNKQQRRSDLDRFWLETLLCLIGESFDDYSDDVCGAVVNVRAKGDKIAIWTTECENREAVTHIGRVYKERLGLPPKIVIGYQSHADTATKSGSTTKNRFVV
# assay-comment: Human eIF4E/4G2 binding assay (TR-FRET)
# test-parameters: Human eIF4E/4G2 TR-FRET binding assay; head says IC50, legend says EC50
pIC50: −log10 of the molar value.
metric: pIC50

| compound | result |
| --- | --- |
| COc1ccccc1CC(CNc1nc(-c2ccc(Cl)c(Cl)c2)c(CC(C)C)s1)C(=O)O (centres unmarked) [I-20] | ≥ 6.00 |
| CC(C)c1sc(N(CCC(=O)O)Cc2ccccc2)nc1-c1ccc(F)c(Cl)c1 [I-78] | 5.00 to 6.00 |
| O=C(O)c1sc(C2CCCC2)cc1Nc1nc(CCc2ccccc2)c(-c2ccc(Cl)c(Cl)c2)s1 [I-309] | ≥ 6.00 |

In plain terms, CC(C)Cc1sc(Nc2ccccc2C#N)nc1-c1ccc(Cl)c(Cl)c1 [I-286] has a documented pIC50 of < 5.00

In plain terms, CC(C)Cc1sc(N(CCC(=O)N2CCN(C)CC2)Cc2ccccc2)nc1-c1ccc(Cl)c(Cl)c1 [I-133] has a documented pIC50 of < 5.00

In plain terms, CC(C)Cc1sc(N(CCC(=O)O)CCC(=O)O)nc1-c1ccc(Cl)c(Cl)c1 [I-58] has a documented pIC50 of < 5.00

In plain terms, CC(C)Cc1sc(N2CCN(C(=O)c3ccccc3)C(C(=O)O)C2)nc1-c1ccc(Cl)c(Cl)c1 (centres unmarked) [I-246] has a documented pIC50 of 5.00 to 6.00

In plain terms, CC(C)Cc1sc(NCC(Cc2ccc(S(N)(=O)=O)cc2)C(=O)O)nc1-c1ccc(Cl)c(Cl)c1 (centres unmarked) [I-176] has a documented pIC50 of 5.00 to 6.00

In plain terms, CC(C)Cc1sc(N(CC(=N)N)Cc2ccccc2)nc1-c1ccc(Cl)c(Cl)c1 [I-231] has a documented pIC50 of < 5.00

In plain terms, CC(C)Cc1sc(Nc2ncc(C(F)(F)F)cc2C(=O)O)nc1-c1ccc2ccccc2c1 [I-321] has a documented pIC50 of ≥ 6.00

In plain terms, CC(C)Cc1sc(N(CCC(=O)O)CC2CCCO2)nc1-c1ccc(Cl)c(Cl)c1 (centres unmarked) [I-69] has a documented pIC50 of 5.00 to 6.00

In plain terms, CC(C)Cc1sc(N(CCC(=O)NS(=O)(=O)CCN)Cc2ccccc2)nc1-c1ccc(Cl)c(Cl)c1 [I-198] has a documented pIC50 of < 5.00

In plain terms, CC(C)Cc1sc(N(CCC(=O)O)Cc2ccccc2Cl)nc1-c1ccc(Cl)c(Cl)c1 [I-108] has a documented pIC50 of ≥ 6.00

In plain terms, COc1ccccc1CN(CCC(=O)O)c1nc(-c2ccc(Cl)c(Cl)c2)c(CC(C)C)s1 [I-49] has a documented pIC50 of ≥ 6.00

In plain terms, CC(C)Cc1sc(-c2cccc(C(=O)O)c2)nc1-c1ccc(Cl)c(Cl)c1 [I-203] has a documented pIC50 of 5.00 to 6.00

In plain terms, O=C(O)CCN(CCc1ccccc1)c1nc(-c2ccc(Cl)c(Cl)c2)c(C2CC2)s1 [I-57] has a documented pIC50 of ≥ 6.00

###

Entries annotated with measured IC50
# measured-target: Human eIF4E (aa 28-217) / biotin labeled 4G2 peptide (Homo sapiens (Human))
# assay-comment: Human eIF4E/4G2 binding assay (TR-FRET)
# test-parameters: Human eIF4E/4G2 TR-FRET binding assay; head says IC50, legend says EC50

Consider the worked cases shown below.
| compound | result |
| --- | --- |
| CC(=O)NC(CNc1nc(-c2ccc(Cl)c(Cl)c2)c(CC(C)C)s1)C(=O)O (stereo not drawn) | > 10000 nM |
| CC(C)Cc1sc(N(CCC(=O)O)Cc2ccncc2)nc1-c1ccc(Cl)c(Cl)c1 | 1000 to 10000 nM |
| CC(C)Cc1sc(Nc2ccsc2C(=O)O)nc1-c1ccc(Cl)c(Cl)c1 | ≤ 1000 nM |
| CC(C)Cc1sc(NCC(Cc2cccc(C(=O)N(C)C)c2)C(=O)O)nc1-c1ccc(Cl)c(Cl)c1 (stereo not drawn) | 1000 to 10000 nM |
| Cn1nnnc1-c1sc(Nc2ccsc2C(=O)O)nc1-c1ccc(Cl)c(Cl)c1 | 1000 to 10000 nM |

In plain terms, CC(C)Cc1sc(NCC(Cc2ccccn2)C(=O)O)nc1-c1ccc(Cl)c(Cl)c1 (stereo not drawn) has a documented IC50 of 1000 to 10000 nM

###

# measured-target: Human eIF4E (aa 28-217) / biotin labeled 4G2 peptide (Homo sapiens (Human), UniProt P06730)
# assay-comment: Human eIF4E/4G2 binding assay (TR-FRET)
# test-parameters: Human eIF4E/4G2 TR-FRET binding assay; head says IC50, legend says EC50
Entries annotated with measured IC50

Consider the worked cases shown below.
| compound | metric | result |
| --- | --- | --- |
| CC(C)Cc1sc(Nc2nccc(-c3ccccc3)c2C(=O)O)nc1-c1ccc(Cl)c(Cl)c1 | IC50 | ≤ 1 µM |
| COc1ccc(-c2nc(Nc3ncc(C(F)(F)F)cc3C(=O)O)sc2CC(C)C)cc1Cl | IC50 | ≤ 1 µM |
| CC(C)Cc1sc(Nc2ccnc(C(=O)O)c2)nc1-c1ccc(Cl)c(Cl)c1 | IC50 | 1 to 10 µM |
| CC(C)Cc1sc(N2CCN(C(=O)c3cccnc3)C(C(=O)O)C2)nc1-c1ccc(Cl)c(Cl)c1 (centres unmarked) | IC50 | 1 to 10 µM |
| CC(C)c1sc(NCC(CCc2ccccc2)C(=O)O)nc1-c1ccc(Cl)c(Cl)c1 (centres unmarked) | IC50 | ≤ 1 µM |

In plain terms, CC(C)Cc1sc(N(CCC(=N)N)Cc2ccccc2)nc1-c1ccc(Cl)c(Cl)c1 has a documented IC50 of > 10 µM

In plain terms, CC(C)Cc1sc(Nc2cc(-c3ccc(F)cc3)sc2C(=O)O)nc1-c1ccc(Cl)c(Cl)c1 has a documented IC50 of ≤ 1 µM

In plain terms, CC(C)Cc1sc(Nc2cc(NC(=O)c3ccccc3)cc(C(=O)O)c2)nc1-c1ccc(Cl)c(Cl)c1 has a documented IC50 of ≤ 1 µM

###

# measured-target: Human eIF4E (aa 28-217) / biotin labeled 4G2 peptide (Homo sapiens (Human))
# assay-comment: Human eIF4E/4G2 binding assay (TR-FRET)
# test-parameters: Human eIF4E/4G2 TR-FRET binding assay; head says IC50, legend says EC50
metric: IC50

| compound | measured-target | IC50 |
| --- | --- | --- |
| CC(C)Cc1sc(N(CCC(=O)O)Cc2ccccc2)nc1-c1ccc(-c2ccsc2)cc1 | Human eIF4E (aa 28-217) / biotin labeled 4G2 peptide (Homo sapiens (Human)) | ≤ 1000 nM |
| CC(C)Cc1sc(NCC(Cc2ccc(N(C)C)nc2)C(=O)O)nc1-c1ccc(Cl)c(Cl)c1 (stereo not shown) | Human eIF4E (aa 28-217) / biotin labeled 4G2 peptide (Homo sapiens (Human)) | 1000 to 10000 nM |
| CC(C)Cc1sc(Nc2cc(C(C)(C)C)sc2C(=O)O)nc1-c1ccc(Cl)c(Cl)c1 | Human eIF4E (aa 28-217) / biotin labeled 4G2 peptide (Homo sapiens (Human)) | ≤ 1000 nM |

In plain terms, CC(C)c1sc(NCC(Cc2c[nH]c3ccccc23)C(=O)O)nc1-c1ccc(Cl)cc1 (stereo not shown) has a documented IC50 of 1000 to 10000 nM

###

# measured-target: Human eIF4E (aa 28-217) / biotin labeled 4G2 peptide (Homo sapiens (Human), UniProt P06730)
# assay-comment: Human eIF4E/4G2 binding assay (TR-FRET)
# test-parameters: Human eIF4E/4G2 TR-FRET binding assay; head says IC50, legend says EC50
pIC50: −log10 of the molar value.
metric: pIC50

Consider the worked cases shown below.
| compound | pIC50 |
| --- | --- |
| CC(C)Cc1sc(N(CCS(=O)(=O)NC(=O)CCN)Cc2ccccc2)nc1-c1ccc(Cl)c(Cl)c1 | < 5.00 |
| O=C(O)CCN(Cc1ccccc1)c1nc(-c2ccc(Cl)c(Cl)c2)c(Cn2ccnc2)s1 | 5.00 to 6.00 |
| CC(C)Cc1sc(Nc2cc(-c3cccc(Cl)c3)sc2C(=O)O)nc1-c1ccc(Cl)c(Cl)c1 | ≥ 6.00 |
| CC(C)Cc1sc(N(CCC(=O)O)Cc2ccccc2)nc1-c1cccnc1 | < 5.00 |
| CC(C)c1sc(Nc2ncc(-c3ccccc3)cc2C(=O)O)nc1-c1ccc(Cl)c(Cl)c1 | ≥ 6.00 |

In plain terms, CC(C)Cc1sc(N(CCC(=O)O)Cc2cccnc2)nc1-c1ccc(Cl)c(Cl)c1 has a documented pIC50 of 5.00 to 6.00

In plain terms, CC(C)Cc1sc(NCC(Cc2cnc(O)nc2)C(=O)O)nc1-c1ccc(Cl)c(Cl)c1 (centres unmarked) has a documented pIC50 of 5.00 to 6.00

In plain terms, CC(C)c1sc(Nc2ncc(-c3ccccc3)cc2C(=O)O)nc1-c1ccc(Cl)c(C(F)(F)F)c1 has a documented pIC50 of ≥ 6.00

In plain terms, CCOC(=O)NC1CN(c2nc(-c3ccc(Cl)c(Cl)c3)c(CC(C)C)s2)C1=O (centres unmarked) has a documented pIC50 of 5.00 to 6.00

In plain terms, CC(C)Cc1sc(NCC(Cc2ccncn2)C(=O)O)nc1-c1ccc(Cl)c(Cl)c1 (centres unmarked) has a documented pIC50 of 5.00 to 6.00

In plain terms, CC(C)Cc1sc(N(Cc2ccccc2)CC(O)C(=O)O)nc1-c1ccc(Cl)c(Cl)c1 (centres unmarked) has a documented pIC50 of ≥ 6.00

In plain terms, O=C(O)c1sc(C2CCCC2)cc1Nc1nc(Cc2ccccc2)c(-c2ccccc2)s1 has a documented pIC50 of ≥ 6.00

In plain terms, CC(C)Cc1sc(N(CCC(=O)NCC(N)=O)Cc2ccccc2)nc1-c1ccc(Cl)c(Cl)c1 has a documented pIC50 of < 5.00

In plain terms, COc1ccc(-c2nc(N(CCC(=O)O)Cc3ccccc3)sc2C(C)C)cc1 has a documented pIC50 of < 5.00
